Each recorded value in this set is attributed to patent US8835392B2.

Target: proteasomal activity in HeLa-cells (Homo sapiens, UniProt P20618+P28074)
Construct: endogenous in cells; host or cells: HeLa
Assay: Intracellular inhibition of proteasomes in cultivated HeLa-cells
Type: cell-based
Settings: HeLa cells, 1 μM
Protocol: A, HeLa-cells were cultivated were 24 hours in the presence of the inhibitor. The protein concentration was determined in accordance with the cellular lysis according to Bradford in order to normalise the proteasomal activities to the different amounts of cells. Subsequently Complete (Roche) was added to all lysates, and the proteasomal activity was determined through the hydrolysis of Suc-LLVY-AMC. B, HeLa-cells was incubated with 1 μM of compound 15 for 2, 4, 6 and 24 hours. […]
Where a SMILES comes first, the peptide text is derived from it. The star is where a group is joined. Cbz = O=C(OCc1ccccc1)*; Boc = CC(C)(C)OC(=O)*; OBn = c1ccc(CO*)cc1; OtBu = CC(C)(C)O*
observable: reduction of the specific proteasomal activity in cells

INSERT INTO assay_data (compound, reported_measurement) VALUES
  ('CC(C)C[C@@H](C=O)NC(=O)[C@H](CC(=O)OCc1ccccc1)NC(=O)[C@H](CC(C)C)NC(=O)OCc1ccccc1 [Compound 18] (Cbz-Leu-Asp(OBn)-Leu-aldehyde)', 'very weak inhibition'),
  ('CC(C)C[C@H](NC(=O)OCc1ccccc1)C(=O)N[C@@H](CC(C)C)C(=O)N[C@@H](CC(C)C)C(O)C#Cc1ccccc1 (stereo partly shown)', 'very weak inhibition'),
  ('CC(C)C[C@H](NC(=O)OCc1ccccc1)C(=O)N[C@@H](CC(C)C)C(=O)N[C@@H](CC(C)C)C(=O)C(=O)NCc1cccnc1', 'markedly reduction'),
  ('CC(C)C[C@@H](C=O)NC(=O)[C@H](CC(=O)OC(C)(C)C)NC(=O)[C@H](CC(C)C)NC(=O)OC(C)(C)C [Compound 13] (Boc-Leu-Asp(OtBu)-Leu-aldehyde)', 'markedly reduction');
